- System Under Test: PYL11 (Arabidopsis thaliana)
- Construct: made in house; host or cells: E. coli BL21[DE3]pLysS
- Sequence (Q9FJ50 whole entry, one chain of several): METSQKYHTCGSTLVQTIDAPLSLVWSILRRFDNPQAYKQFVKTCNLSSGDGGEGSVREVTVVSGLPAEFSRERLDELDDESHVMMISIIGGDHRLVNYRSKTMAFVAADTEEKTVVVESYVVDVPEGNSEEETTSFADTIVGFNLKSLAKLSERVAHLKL
- Assay Protocol: receptor-mediated PP2C (HAB1) inhibition in vitro assay
- Type: biochemical
- Test Conditions: Table XII-B; calculated from dose curves; read-out: PP2C Activity (IC50 in uM) PYL11
Outcome Measure: log10 of IC50 (log10 of the value in µM)
In plain terms, each number is the log10 of measured IC50 in µM.

Below, 2 compounds whose answers are already recorded.
| Compound | log10 of IC50 |
| --- | --- |
| N#Cc1ccc(CS(=O)(=O)NC(=O)C(c2ccc(F)cc2)c2ccc(F)cc2)cc1 | 1.40 |
| N#Cc1ccc(CS(=O)(=O)NC(=O)C2(c3ccccc3)CCCCC2)cc1 | 0.40 |

Consider the record given below.
Can you share its log10 of IC50? I mean this compound: N#Cc1ccc(CS(=O)(=O)NC(=O)C(c2ccccc2)c2ccccc2)cc1
1.40

###

- System Under Test: PYL9 (Arabidopsis thaliana, UniProt Q84MC7)
- Construct: 6X-His; made in house; host or cells: E. coli BL21[DE3]pLysS
- Sequence (Q84MC7 whole entry, one chain of several): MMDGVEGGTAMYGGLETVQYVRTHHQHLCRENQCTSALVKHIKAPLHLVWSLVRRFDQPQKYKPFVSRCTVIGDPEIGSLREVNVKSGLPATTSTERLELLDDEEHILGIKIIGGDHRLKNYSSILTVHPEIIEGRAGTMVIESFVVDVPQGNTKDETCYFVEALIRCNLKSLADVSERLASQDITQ
- Assay Protocol: receptor-mediated PP2C (HAB1) inhibition in vitro assay
- Format: biochemical
- Test Conditions: compound at 25 μM; control without agonist = 100%
Outcome Measure: remaining activity at 25 µM (%)
Form entry: value (%) — number only.

Worked set:
| Molecule | System Under Test | Measurement Units | remaining activity at 25 µM |
| --- | --- | --- | --- |
| CC(C)(C(=O)NS(=O)(=O)Cc1ccc(C#N)cc1)c1ccc(Cl)cc1 | PYL9 (Arabidopsis thaliana, UniProt Q84MC7) | % | 32 |
| CCC(CC)(C(=O)NS(=O)(=O)Cc1ccc([N+](=O)[O-])cc1)c1ccccc1 | PYL9 (Arabidopsis thaliana, UniProt Q84MC7) | % | 15 |
| CC(C)(C(=O)NS(=O)(=O)Cc1ccc([N+](=O)[O-])cc1)c1ccccc1 | PYL9 (Arabidopsis thaliana, UniProt Q84MC7) | % | 18 |

Next:
So what does the record say about remaining activity at 25 µM for Cc1ccccc1C1(C(=O)NS(=O)(=O)Cc2ccc(C#N)cc2)CC1 ?
50

###

- System Under Test: PYL8 (Arabidopsis thaliana, UniProt Q9FGM1)
- Construct: 6X-His; made in house; host or cells: E. coli BL21[DE3]pLysS
- Sequence (Q9FGM1 1-188): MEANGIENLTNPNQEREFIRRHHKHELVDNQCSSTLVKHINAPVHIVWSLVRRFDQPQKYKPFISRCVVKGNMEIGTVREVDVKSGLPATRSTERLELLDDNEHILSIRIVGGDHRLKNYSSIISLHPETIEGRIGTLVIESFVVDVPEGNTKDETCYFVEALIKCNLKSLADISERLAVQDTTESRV
- Sequence (Q9CAJ0 23-511 partner): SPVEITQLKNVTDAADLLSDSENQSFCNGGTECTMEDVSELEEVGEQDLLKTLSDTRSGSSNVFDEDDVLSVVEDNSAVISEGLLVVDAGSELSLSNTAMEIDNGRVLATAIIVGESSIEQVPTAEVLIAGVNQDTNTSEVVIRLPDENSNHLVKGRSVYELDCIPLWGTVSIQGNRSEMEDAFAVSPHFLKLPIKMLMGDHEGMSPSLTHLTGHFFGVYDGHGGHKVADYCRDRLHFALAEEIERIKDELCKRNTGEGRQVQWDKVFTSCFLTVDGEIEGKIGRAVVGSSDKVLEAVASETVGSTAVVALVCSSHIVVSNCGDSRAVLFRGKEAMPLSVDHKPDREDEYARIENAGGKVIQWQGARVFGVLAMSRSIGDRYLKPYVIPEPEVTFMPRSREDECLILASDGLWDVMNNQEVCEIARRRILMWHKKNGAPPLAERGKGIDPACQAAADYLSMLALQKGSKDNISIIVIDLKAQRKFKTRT
- Assay Protocol: receptor-mediated PP2C (HAB1) inhibition in vitro assay
- Format: biochemical
- Test Conditions: Table XII-B; calculated from dose curves; read-out: PP2C Activity (IC50 in uM) PYL8
Outcome Measure: IC50 (µM)
Dear colleague, please return just the value in µM, with no unit written.

| Molecule | System Under Test | Data Value |
| --- | --- | --- |
| N#Cc1ccc(CS(=O)(=O)NC(=O)C2(c3ccccc3)CCCCC2)cc1 [Compound 69] | PYL8 (Arabidopsis thaliana, UniProt Q9FGM1) | 0.75 |

Now for the molecule whose IC50 we want.
// query IC50 value for entry CC(C)COC(=O)NS(=O)(=O)Cc1ccc(C#N)cc1 [Compound 65]
20.4

###

- System Under Test: PYL9 (Arabidopsis thaliana, UniProt Q84MC7)
- Construct: 6X-His; made in house; host or cells: E. coli BL21[DE3]pLysS
- Assay Protocol: receptor-mediated PP2C (HAB1) inhibition in vitro assay
- Type: biochemical
- Test Conditions: Table XII-B; calculated from dose curves; read-out: PP2C Activity (IC50 in uM) PYL9
Outcome Measure: IC50

| Molecule | Outcome Measure | Data Value |
| --- | --- | --- |
| O=C(NS(=O)(=O)Cc1ccc([N+](=O)[O-])cc1)C1(c2ccccc2)CCCCC1 | IC50 | > 50 µM |
| N#Cc1ccc(CS(=O)(=O)NC(=O)C2(c3ccsc3)CCCCC2)cc1 | IC50 | 0.038 µM |

Consider the record given below.
Fill in: IC50 of N#Cc1ccc(CS(=O)(=O)NC(=O)C(c2ccc(F)cc2)c2ccc(F)cc2)cc1 is ___
> 50 µM

###

- System Under Test: PYR1 (Arabidopsis thaliana, UniProt O49686)
- Construct: 6X-His; made in house; host or cells: E. coli BL21[DE3]pLysS
- Sequence (O49686 whole entry, one chain of several): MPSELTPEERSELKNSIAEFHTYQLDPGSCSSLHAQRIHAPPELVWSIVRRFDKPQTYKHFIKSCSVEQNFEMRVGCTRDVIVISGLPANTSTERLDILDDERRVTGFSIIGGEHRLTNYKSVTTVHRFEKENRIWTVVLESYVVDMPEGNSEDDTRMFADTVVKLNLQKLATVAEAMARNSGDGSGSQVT
- Assay Protocol: receptor-mediated PP2C (HAB1) inhibition in vitro assay
- Type: biochemical
- Test Conditions: 50 uM of the test compound
Outcome Measure: remaining activity at 50 µM
Output should be the measured figure followed by the unit it is expressed in.

# count of solved cases: 3
| Molecule | System Under Test | remaining activity at 50 µM |
| --- | --- | --- |
| N#Cc1ccc(CS(=O)(=O)NC(=O)C(c2ccc(F)cc2)c2ccc(F)cc2)cc1 | PYR1 (Arabidopsis thaliana, UniProt O49686) | 93.9% |
| CC(C)COC(=O)NS(=O)(=O)Cc1ccc(C#N)cc1 | PYR1 (Arabidopsis thaliana, UniProt O49686) | 96.2% |
| N#Cc1ccc(CS(=O)(=O)NC(=O)C(c2ccccc2)c2ccccc2)cc1 | PYR1 (Arabidopsis thaliana, UniProt O49686) | 97.9% |

# next compound below
Name the reported remaining activity at 50 µM value associated with the compound N#Cc1ccc(CS(=O)(=O)NC(=O)C(C2CCCCC2)C2CCCCC2)cc1
91.6%

###

Let's look at some molecules and their measured remaining activity at 25 µM.
- System Under Test: PYL4 (Arabidopsis thaliana, UniProt O80920)
- Construct: 6X-His; made in house; host or cells: E. coli BL21[DE3]pLysS
- Sequence (O80920 1-207): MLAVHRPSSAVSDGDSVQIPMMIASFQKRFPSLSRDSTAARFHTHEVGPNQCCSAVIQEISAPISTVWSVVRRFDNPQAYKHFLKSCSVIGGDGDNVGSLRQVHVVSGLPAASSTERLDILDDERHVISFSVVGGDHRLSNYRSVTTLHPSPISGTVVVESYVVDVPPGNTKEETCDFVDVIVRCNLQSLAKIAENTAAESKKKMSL
- Sequence (Q9CAJ0 23-511 partner): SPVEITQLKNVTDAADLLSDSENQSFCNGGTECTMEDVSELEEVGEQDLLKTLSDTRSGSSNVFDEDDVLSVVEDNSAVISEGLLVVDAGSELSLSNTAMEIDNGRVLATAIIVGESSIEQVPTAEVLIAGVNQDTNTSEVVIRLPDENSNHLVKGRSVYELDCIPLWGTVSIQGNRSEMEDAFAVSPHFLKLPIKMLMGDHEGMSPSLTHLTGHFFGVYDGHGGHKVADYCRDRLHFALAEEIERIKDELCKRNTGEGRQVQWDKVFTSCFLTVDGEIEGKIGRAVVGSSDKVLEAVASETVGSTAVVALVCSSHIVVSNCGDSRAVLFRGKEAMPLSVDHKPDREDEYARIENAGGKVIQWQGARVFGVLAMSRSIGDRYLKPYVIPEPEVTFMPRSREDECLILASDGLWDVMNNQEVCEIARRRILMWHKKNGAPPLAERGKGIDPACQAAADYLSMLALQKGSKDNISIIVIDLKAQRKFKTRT
- Assay Protocol: receptor-mediated PP2C (HAB1) inhibition in vitro assay
- Type: biochemical
- Test Conditions: compound at 25 μM; control without agonist = 100%
Just the number in %, nothing appended.

| Molecule | remaining activity at 25 µM, % |
| --- | --- |
| CC(C)(C(=O)NS(=O)(=O)Cc1ccc(C#N)cc1)c1ccc(F)cc1 [Compound 13] | 98 |
| N#Cc1ccc(CS(=O)(=O)NC(=O)C2(c3cccc(F)c3)CC2)cc1 [Compound 46] | 95 |
| N#Cc1ccc(CS(=O)(=O)NC(=O)C2(c3ccc(Br)cc3)CC2)cc1 [Compound 30] | 90 |
| CC(C)(C(=O)NS(=O)(=O)Cc1ccc([N+](=O)[O-])cc1)c1ccccc1 [Compound 3] | 90 |
| Cc1cccc(C2(C(=O)NS(=O)(=O)Cc3ccc(C#N)cc3)CCCC2)c1 [Compound 43] | 95 |

# query: remaining activity at 25 µM of entry CC(C)(C(=O)NS(=O)(=O)Cc1ccc(C#N)cc1)c1ccc(Cl)c(Cl)c1 [Compound 7]
90

// repeat for N#Cc1ccc(CS(=O)(=O)NC(=O)C2(c3cccc(F)c3)CCCC2)cc1 [Compound 26] and report
99

Would you mind doing O=C(NS(=O)(=O)Cc1cccc2cccnc12)C1(c2ccccc2)CC1 [Compound 62] as well?
98

And for N#Cc1ccc(CS(=O)(=O)NC(=O)C2(c3cccc(C#N)c3)CC2)cc1 [Compound 50] ?
67

Next record, please: N#Cc1ccc(CS(=O)(=O)NC(=O)C2(c3ccccc3)CCC2)cc1 [Compound 29]
96

What about this molecule? COc1ccccc1C1(C(=O)NS(=O)(=O)Cc2ccc(C#N)cc2)CCC1 [Compound 42]
88

Now this one: CCC(CC)(C(=O)NS(=O)(=O)Cc1ccc([N+](=O)[O-])cc1)c1ccccc1 [Compound 19]
86

Same lookup for N#Cc1ccc(CS(=O)(=O)NC(=O)C2(c3ccc(F)cc3)CC2)cc1 [Compound 35] , please.
94
